System: H1299 p53 R273H
Test Name: Cell Proliferation Assay (CellTiter-Glo, CTG), H1299 p53 R273H (NClH1299-inducible p53 R273H)
Format: cell-based
Details: Homo sapiens, NCI-H1299, 120 h, CellTiter-Glo, H1299 p53 R273H, 5 days
Measurement Name: IC50

[Q] Identify IC50 associated with the compound CNC(=O)c1ccc(NCC#Cc2nc3c(N[C@@H]4CNC[C@@H]4F)cccn3c2SC(F)(F)F)c(OC)c1
[A] ≥ 10 µM

[Q] Identify IC50 associated with the compound CCNC(=O)c1ccc(OC)c(NCC#Cc2nc3c(N[C@@H]4CCN(C)C[C@@H]4F)cccn3c2SC(F)(F)F)c1
[A] 8 to 10 µM

[Q] Identify IC50 associated with the compound COC[C@H](O)CN1CCC(Nc2cccn3c(CC(F)(F)F)c(C#CCNc4ccc(S(C)(=O)=O)cc4OC)nc23)CC1
[A] 5 to 8 µM

[Q] Identify IC50 associated with the compound CNC(=O)c1ccc(NCC#Cc2nc3c(N[C@@H]4CCc5nncn5C4)cccn3c2SC(F)(F)F)c(OC)c1
[A] ≥ 10 µM

[Q] Identify IC50 associated with the compound CNC(=O)c1c[nH]nc1NCC#Cc1nc2c(N[C@@H]3CCN(C)C[C@@H]3F)cccn2c1SC(F)(F)F
[A] ≥ 10 µM

[Q] Identify IC50 associated with the compound CNC(=O)c1ccnc(NCC#Cc2nc3c(N[C@@H]4CCN(C)C[C@@H]4F)cccn3c2SC(F)(F)F)c1
[A] ≥ 10 µM

[Q] Identify IC50 associated with the compound CNC(=O)c1ccc(OC)c(NCC#Cc2cc3c(N[C@@H]4CNC[C@@H]4F)nccn3c2SC(F)(F)F)n1
[A] ≥ 10 µM

[Q] Identify IC50 associated with the compound CCS(=O)(=O)c1ccc(NCC#Cc2nc3c(N[C@@H]4CCN(C)C[C@@H]4F)cccn3c2CC(F)(F)F)c(OC)c1
[A] 5 to 8 µM

Let us examine a further case.
[Q] Identify IC50 associated with the compound CNC(=O)c1ccc(OC)c(NCC#Cc2nc3c(N[C@@H]4C[C@H]5CC[C@H](N5)[C@@H]4F)cccn3c2SC(F)(F)F)c1
[A] 8 to 10 µM

###

Readings of AC50 for the listed molecules
Test System: p53 Y220C (Homo sapiens, UniProt P04637, Y220C)
Test Name: Luciferase Reporter Assay (Luc), p53 response element, NClH1299 cells with inducible p53 Y220C
Type: cell-based
Details: AC50; luciferase reporter, NClH1299 inducible p53 Y220C, 6 hour; read-out: Luc P53 Y220C AC50

[Q] Specify the recorded AC50 for COc1ncc(C(N)=O)cc1NCC#Cc1nn2c(N[C@@H]3CCN(C)C[C@@H]3F)cccc2c1SC(F)(F)F [Example 276] , system: p53 Y220C (Homo sapiens, UniProt P04637, Y220C).
[A] < 750 nM

[Q] Specify the recorded AC50 for CNC(=O)c1ccc(NCC#Cc2nc3c(N[C@@H]4CCOC[C@@H]4F)cccn3c2SC(F)(F)F)c(OCCN(C)C)c1 [Example 226] , system: p53 Y220C (Homo sapiens, UniProt P04637, Y220C).
[A] 750 to 1500 nM

[Q] Specify the recorded AC50 for CNC(=O)c1ccc(OC)c(NCC#Cc2cc3c(N[C@@H]4CCN(C[C@@H](C)O)C[C@@H]4F)nccn3c2SC(F)(F)F)c1 [Example 401] , system: p53 Y220C (Homo sapiens, UniProt P04637, Y220C).
[A] < 750 nM

[Q] Specify the recorded AC50 for COc1cc(C(=O)O)ccc1NCC#Cc1cc2c(N[C@@H]3CCN(C)C[C@@H]3F)cccn2c1SC(F)(F)F [Example 451] , system: p53 Y220C (Homo sapiens, UniProt P04637, Y220C).
[A] < 750 nM

---
[Q] Specify the recorded AC50 for COc1ccc(C(N)=O)nc1NCC#Cc1nn2c(N[C@@H]3CCN(C)C[C@@H]3F)cccc2c1SC(F)(F)F [Example 235] , system: p53 Y220C (Homo sapiens, UniProt P04637, Y220C).
[A] 750 to 1500 nM

[Q] Specify the recorded AC50 for COc1cc(P(C)(C)=O)ccc1NCC#Cc1cc2c(N[C@@H]3CCNC[C@@H]3F)cccn2c1SC(F)(F)F [Example 379] , system: p53 Y220C (Homo sapiens, UniProt P04637, Y220C).
[A] < 750 nM

[Q] Specify the recorded AC50 for CNC(=O)c1ccc(OC)c(NCC#Cc2nn3c(N[C@@H]4CCNC[C@@H]4F)cccc3c2SC(F)(F)F)n1 [Example 237] , system: p53 Y220C (Homo sapiens, UniProt P04637, Y220C).
[A] < 750 nM

[Q] Specify the recorded AC50 for CNC(=O)c1ccc(NCC#Cc2cc3c(N[C@@H]4CCN(C)C[C@@H]4F)cccn3c2SC(F)(F)F)c(OCF)c1 [Example 436] , system: p53 Y220C (Homo sapiens, UniProt P04637, Y220C).
[A] < 750 nM

###

Test System: p53 Y220C (Homo sapiens, UniProt P04637, Y220C)
Test Name: Luciferase Reporter Assay (Luc), p53 response element, NClH1299 cells with inducible p53 Y220C
Type: cell-based
Details: luciferase reporter, NClH1299 inducible p53 Y220C, 6 hour; read-out: Luc P53 Y220C AC50
Protocol: Luciferase Reporter Assay Protocol The cells were then used for p53 reporter assay. 5,000 cells were seeded in each well of 384 plate and cultured in 0.5 ug/mL doxycycline (D3072; Sigma) containing medium for 24 hours before compound treatment. […] The luciferase activity was immediately measured with PheraStar microplate reader.
Measurement Name: AC50

[Q] Identify AC50 associated with the molecule CNC(=O)c1ccc(NCC#Cc2nc3c(N[C@@H]4CCN(C)C[C@@H]4F)cccn3c2CC(F)(F)F)c(OCCOC)c1 [Example 62]
[A] 750 to 1500 nM

[Q] Identify AC50 associated with the molecule CNC(=O)c1ccc(NCC#Cc2nc3c(N[C@@H]4CNC[C@@H]4F)cccn3c2SC(F)(F)F)c(OC)c1 [Example 102]
[A] < 750 nM

[Q] Identify AC50 associated with the molecule CNC(=O)c1ccc(NCC#Cc2nc3c(NCC4(F)CNC4)cccn3c2SC(F)(F)F)c(OC)c1 [Example 197]
[A] > 3000 nM

[Q] Identify AC50 associated with the molecule CNC(=O)c1ccc(OC)c(NCC#Cc2nc3c(N[C@@H]4CCN(C)C[C@@H]4F)cccn3c2SC(F)F)c1 [Example 167]
[A] < 750 nM

[Q] Identify AC50 associated with the molecule CNC(=O)c1ccc(NCC#Cc2nc3c(N[C@@H]4CCN(C)C[C@@H]4F)cccn3c2SC(F)F)c(OC)c1 [Example 106]
[A] < 750 nM

---
[Q] Identify AC50 associated with the molecule CNC(=O)c1cccc(NCC#Cc2nc3c(N[C@@H]4CCN(C)C[C@@H]4F)cccn3c2SC(F)(F)F)n1 [Example 162]
[A] < 750 nM

[Q] Identify AC50 associated with the molecule CNC(=O)c1ccc(NCC#Cc2nc3c(NC4CC5(C4)CN(CC(F)F)C5)cccn3c2SC(F)(F)F)c(OC)c1 [Example 173]
[A] 750 to 1500 nM

[Q] Identify AC50 associated with the molecule CNC(=O)c1ccc(NCC#Cc2nc3c(N[C@H]4CN(C)CC[C@@H]4F)cccn3c2SC(F)(F)F)c(OC)c1 [Example 147]
[A] < 750 nM

[Q] Identify AC50 associated with the molecule CNC(=O)c1ccc(NCC#Cc2nc3c(N[C@@H]4CCN(C)C[C@@H]4F)cccn3c2CC(F)(F)F)cc1 [Example 35]
[A] > 3000 nM

[Q] Identify AC50 associated with the molecule CNC(=O)c1ccc(NCC#Cc2cc3c(N[C@@H]4CCN(C)C[C@@H]4F)nccn3c2SC(F)(F)F)c(OC)c1 [Example 155]
[A] < 750 nM

[Q] Identify AC50 associated with the molecule CNC(=O)c1ccc(OC)c(NCC#Cc2nn3c(N[C@@H]4CCN(C)C[C@@H]4F)cccc3c2SC(F)F)c1 [Example 194]
[A] < 750 nM

[Q] Identify AC50 associated with the molecule CNC(=O)c1ccc(NCC#Cc2nc3c(N[C@H]4CCn5cncc5C4)cccn3c2SC(F)(F)F)c(OC)c1 [Example 177]
[A] < 750 nM

[Q] Identify AC50 associated with the molecule CNC(=O)c1ccc(NCC#Cc2nn3c(N[C@@H]4CCN(C)C[C@@H]4F)ccnc3c2SC(F)(F)F)c(OC)c1 [Example 205]
[A] > 3000 nM

[Q] Identify AC50 associated with the molecule CNC(=O)c1ccc(NCC#Cc2nc3c(N[C@@H]4CCN(C)C[C@@H]4F)cccn3c2SC(F)(F)F)c(OC(F)F)c1 [Example 105]
[A] < 750 nM

[Q] Identify AC50 associated with the molecule CNC(=O)c1ccc(NCC#Cc2nc3c(N[C@@H]4CCN(C)C(=O)C4)cccn3c2SC(F)(F)F)c(OC)c1 [Example 169]
[A] > 3000 nM
